READOUT_NAME: melting point

Sample records with melting point:
In: Recorded melting point of CC(C)[C@H](S)C(=O)NC1(C(=O)N[C@@H](Cc2ccc(-c3cccs3)cc2)C(=O)O)CCCC1 (stereo in doubt) , please.
Out: 179 to 181 °C

In: And the next one, CC(C)[C@H](S)C(=O)NC1(C(=O)N[C@@H](Cc2cccc(-c3ccccc3)c2)C(=O)O)CCCC1 (stereo in doubt) ?
Out: 75 to 78 °C

In: Next compound up: COc1ccccc1-c1ccc(C[C@H](NC(=O)C2(NC(=O)[C@@H](S)C(C)C)CCCC2)C(=O)O)cc1OC (stereo in doubt)
Out: 173 to 175 °C

In: Similarly, CC(C)[C@H](S)C(=O)NC1(C(=O)N[C@@H](Cc2ccc(-c3ccccc3)cc2)C(=O)O)CCOCC1 (stereo in doubt) ?
Out: 161 to 163 °C

In: Entry to check: CC(C)CC(S)C(=O)NC1(C(=O)NC(Cc2csc3ccccc23)C(=O)O)CCCC1 (stereo not drawn) [Example 13(e)]
Out: 135 to 137 °C

New cases:
In: # query: melting point of entry O=C(NC1(C(=O)N[C@@H](Cc2ccc(-c3ccsc3)cc2)C(=O)O)CCCC1)C(S)Cc1ccccc1 (stereo in doubt)
Out: 190 to 192 °C

In: Then what about the compound O=C(O)[C@H](Cc1ccc(-c2ccc(C(F)(F)F)cc2)cc1)NC(=O)C1(NC(=O)[C@@H](S)Cc2ccccc2)CCCC1 (stereo in doubt) ?
Out: 222 to 225 °C

In: Same again, this time with CC(C)CC(S)C(=O)NC1(C(=O)NC(Cc2c[nH]c3ccccc23)C(=O)O)CCCC1 (stereo not drawn)
Out: 116 to 118 °C
